- Tested on: LU99A
- experimentSummary: relative viability (nuclei count vs DMSO), 5 days (fraction); higher = more cells survive
- assayContext: first compound 0.5 µM
outcomeMeasure: relative viability
Give the value as a plain number.

Illustrative cases are given below, each with its answer.
compound	relative viability
CC1(C)CCC(c2ccc(Cl)cc2)=C(CN2CCN(c3ccc(C(=O)NS(=O)(=O)c4ccc(N[C@H](CCN5CCOCC5)CSc5ccccc5)c(S(=O)(=O)C(F)(F)F)c4)cc3)CC2)C1 [Navitoclax] + O=C(CCCCCCC(=O)Nc1ccccc1)NO [Vorinostat] (partner 1 µM)	0.469
CC1(C)CCC(c2ccc(Cl)cc2)=C(CN2CCN(c3ccc(C(=O)NS(=O)(=O)c4ccc(N[C@H](CCN5CCOCC5)CSc5ccccc5)c(S(=O)(=O)C(F)(F)F)c4)cc3)CC2)C1 [Navitoclax] + N=C(N)NC(=N)NCCc1ccccc1 [Phenformin] (partner 250 µM)	0.928
CC1(C)CCC(c2ccc(Cl)cc2)=C(CN2CCN(c3ccc(C(=O)NS(=O)(=O)c4ccc(N[C@H](CCN5CCOCC5)CSc5ccccc5)c(S(=O)(=O)C(F)(F)F)c4)cc3)CC2)C1 [Navitoclax] + CCNC(=O)c1noc(-c2cc(C(C)C)c(O)cc2O)c1-c1ccc(CN2CCOCC2)cc1 [Luminespib] (partner 0.01 µM)	0.274

(Q) Lab request: please report relative viability under test system LU99A for CC1(C)CCC(c2ccc(Cl)cc2)=C(CN2CCN(c3ccc(C(=O)NS(=O)(=O)c4ccc(N[C@H](CCN5CCOCC5)CSc5ccccc5)c(S(=O)(=O)C(F)(F)F)c4)cc3)CC2)C1 [Navitoclax] + C[C@@H](Oc1cc(-c2cnn(C3CCNCC3)c2)cnc1N)c1c(Cl)ccc(F)c1Cl [Crizotinib] (partner 1 µM)
(A) 0.638

###

Each item that follows carries a reported relative viability.
- System: PC-14
- experimentSummary: relative viability (nuclei count vs DMSO), 5 days (fraction); higher = more cells survive
- assayContext: first compound 8 µM
Give the value as a plain number.

Illustrative cases are given below, each with its answer.
compound	outcomeMeasure	measuredResult
C=C1C(=O)O[C@@H](CCCCCCCC)[C@@H]1C(=O)O [C-75] + N=C(N)NC(=N)NCCc1ccccc1 [Phenformin] (partner 250 µM)	relative viability	0.526
C=C1C(=O)O[C@@H](CCCCCCCC)[C@@H]1C(=O)O [C-75] + COc1cc2c(Oc3ccc(NC(=O)C4(C(=O)Nc5ccc(F)cc5)CC4)cc3F)ccnc2cc1OCCCN1CCOCC1 [Foretinib] (partner 0.25 µM)	relative viability	0.891
C=C1C(=O)O[C@@H](CCCCCCCC)[C@@H]1C(=O)O [C-75] + CC(=O)Nc1cccc(-n2c(=O)n(C3CC3)c(=O)c3c(Nc4ccc(I)cc4F)n(C)c(=O)c(C)c32)c1 [Trametinib] (partner 0.02 µM)	relative viability	0.731
C=C1C(=O)O[C@@H](CCCCCCCC)[C@@H]1C(=O)O [C-75] + COc1cccc2cc(-c3nc([C@H]4CC[C@H](C(=O)O)CC4)n4ncnc(N)c34)[nH]c12 [OSI-027] (partner 0.5 µM)	relative viability	0.856

Now look at this entry.
(Q) Would you mind telling me what relative viability value was observed for C=C1C(=O)O[C@@H](CCCCCCCC)[C@@H]1C(=O)O [C-75] + CC(C)C[C@H](NC(=O)[C@H](Cc1ccccc1)NC(=O)c1cnccn1)B(O)O [Bortezomib] (partner 0.002 µM) ?
(A) 0.965
